# Protocol: Gli-Sufu pathway antagonists, primary screen, luciferase luminescence, Sufu-KO-LIGHT cells, uHTS (AID 588413);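 further: 0% = DMSO-treated cells and 100% = wells with medium but no cells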
# Stated Conditions: Sufu-KO-LIGHT fibroblasts, Gli luciferase reporter luminescence; at 5 µM; stronger effect = higher value
Hit rate of the full screen: of about 340,000 compounds, about 2,500 (0.74%) were called active. The full list was thinned out, with actives kept by preference.
Would you kindly list inhibition for each of these compounds?
Numbers only; they are read as %.

Ask | What does the record list as inhibition for Cc1ccc(CN(CC(=O)NC2CCCCC2)C(=O)c2csnn2)cc1 ?
Reply | -19.5

Ask | What does the record list as inhibition for O=C1/C(=C/c2ccc(F)cc2)SC(=S)N1CCCC(=O)N1CCCCC1CCO (stereo not drawn) ?
Reply | -14.7

Ask | What does the record list as inhibition for CC(=O)N1c2ccc(S(=O)(=O)N3CCCC(C(=O)Nc4cccc(Cl)c4)C3)cc2CC1C (stereo not drawn) ?
Reply | -0.91

Ask | What does the record list as inhibition for Cc1cc(S(=O)(=O)N2CCOCC2)ccc1OCC(=O)Nc1cccc(C(F)(F)F)c1 ?
Reply | -8.26

Ask | What does the record list as inhibition for COc1cccc(/C=N/Nc2ncc(C(F)(F)F)cc2Cl)c1O ?
Reply | 59.1

Ask | What does the record list as inhibition for COc1ccc(C(=O)OCC(=O)c2cc(C)n(CC3CCCO3)c2C)cc1[N+](=O)[O-] (stereo not drawn) ?
Reply | -7.49

Ask | What does the record list as inhibition for CCOc1cccc(NC(=O)Cn2nc(-c3ccc4c(c3)OCCO4)ccc2=O)c1 ?
Reply | -1.4

Ask | What does the record list as inhibition for O=C(CNc1ccc(F)cc1F)NC(=O)NCc1ccco1 ?
Reply | -1.84

Ask | What does the record list as inhibition for CC(=O)Nc1ccc(S(=O)(=O)N2CCN(C(=O)c3ccccc3F)CC2)cc1 ?
Reply | 4.91

Ask | What does the record list as inhibition for O=C(CCc1ccccc1)Nc1ccnn1C1CCN(Cc2ccc(OCCO)cc2)CC1 ?
Reply | 11.7

Ask | What does the record list as inhibition for Cc1cc(C)c2nc(N3CCC(C(=O)NCCN4CCOCC4)CC3)sc2c1 ?
Reply | 42.9

Ask | What does the record list as inhibition for O=C(Nc1ccccc1C(=O)NCCCn1ccnc1)c1ccc(Cl)cc1Cl ?
Reply | 19.3

Ask | What does the record list as inhibition for Cc1[nH]nc(-c2ccc(OCc3cnn(-c4ccccc4)c3)cc2O)c1Oc1ccc(Cl)cc1 ?
Reply | 4.97

Ask | What does the record list as inhibition for O=C(O)c1ccc(/C=C2\SC(=S)N(NC(=O)c3ccc(Br)cc3)C2=O)cc1 ?
Reply | 10

Ask | What does the record list as inhibition for CCn1cc(C(=O)NCC2COc3ccccc3O2)c2cc(OC)c(OC)cc2c1=O (stereo not drawn) ?
Reply | 10.7

Ask | What does the record list as inhibition for CCC(NC(=O)C1CCCC1)c1ccc(C)cc1 (stereo not drawn) ?
Reply | -10.2

Ask | What does the record list as inhibition for CC(=O)N1CCCc2cc(S(=O)(=O)N3CCCC(C(=O)NCc4ccc(Cl)cc4)C3)ccc21 (stereo not drawn) ?
Reply | 27

Ask | What does the record list as inhibition for Cc1ccc(S(=O)(=O)N(C)C)cc1NC(=O)C1Cc2ccccc2CN1C(=O)c1ccco1 (stereo not drawn) ?
Reply | -7.42

Ask | What does the record list as inhibition for CN(C)c1ccc(CSc2ccccc2)cc1 ?
Reply | -50.9

Ask | What does the record list as inhibition for O=C1/C(=C/c2ccc(F)cc2)SC(=S)N1NS(=O)(=O)c1ccccc1 ?
Reply | 59.1

Ask | What does the record list as inhibition for Cc1ccc(S(=O)(=O)c2nc(-c3cccs3)oc2NCc2cccnc2)cc1 ?
Reply | 3.04

Ask | What does the record list as inhibition for CCOc1ccccc1N1CN(Cc2ccccc2)CNC1=S ?
Reply | -9.38

Ask | What does the record list as inhibition for C=CCn1cc(C(=O)NCc2ccc(Cl)cc2)c(=O)c2cc(S(=O)(=O)N(CC)CC)ccc21 ?
Reply | 9.9

Ask | What does the record list as inhibition for CC1OC2C(OC1C)N(S(C)(=O)=O)CCN2S(C)(=O)=O (stereo not drawn) ?
Reply | -7.55

Ask | What does the record list as inhibition for Cc1sc2nc(SCCO)n(-c3ccccc3)c(=O)c2c1C ?
Reply | 3.29

Ask | What does the record list as inhibition for O=C(c1ccccc1)c1ccc2nc(N3CCCCC3)c3nncn3c2c1 ?
Reply | 6.66

Ask | What does the record list as inhibition for CCN(CC)CCCC(C)n1c2nc(=O)[nH]c(=O)c-2nc2cc(Cl)ccc21 (stereo not drawn) ?
Reply | 83.6

Ask | What does the record list as inhibition for Cc1cc(C)n(-c2c(F)c(F)c(COC(=O)c3ccccc3)c(F)c2F)n1 ?
Reply | 6.99

Ask | What does the record list as inhibition for Cc1ccc(-c2ccc(=O)n(CC(=O)NCCCN3CCCCC3)n2)cc1 ?
Reply | 5.01

Ask | What does the record list as inhibition for C[C@@H]1NS(=O)(=O)c2cc(Cl)ccc2O[C@@H]1c1ccccc1 ?
Reply | -5.11

Ask | What does the record list as inhibition for CCOC(=O)c1sc2nc(C)nc(Nc3ccc(OC)c(OC)c3)c2c1C ?
Reply | 12.9

Ask | What does the record list as inhibition for CC(C)(C)c1cc(C(=O)NN)n(Cc2ccc(Cl)cc2Cl)n1 ?
Reply | -3.86

Ask | What does the record list as inhibition for CCC1CCCCN1CCCNC(=O)Cn1nc(-c2ccccc2)ccc1=O (stereo not drawn) ?
Reply | 57

Ask | What does the record list as inhibition for Cc1cccc(NC(=O)C2CCCN2S(=O)(=O)c2ccc(F)cc2)c1C (stereo not drawn) ?
Reply | 10.9

Ask | What does the record list as inhibition for Cc1ccsc1C(=O)OCC(=O)c1cc(C)n(CC2CCCO2)c1C (stereo not drawn) ?
Reply | 72.1

Ask | What does the record list as inhibition for Cc1ccc(C(=O)NCC(=O)O)s1 ?
Reply | -7.96

Ask | What does the record list as inhibition for CCOC(=O)c1cnc(-n2nc(C)cc2C)nc1NNc1cc(C)nc(-c2ccccc2)n1 ?
Reply | 80

Ask | What does the record list as inhibition for O=C1CSC(=O)N1CCOCCN1C(=O)CSC1=O ?
Reply | -19.6

Ask | What does the record list as inhibition for CCCn1c2ccccc2c2cnn(CC(=O)NCCCN3CCCCC3CC)c(=O)c21 (stereo not drawn) ?
Reply | 12.7

Ask | What does the record list as inhibition for COc1ccccc1N(CC(=O)Nc1ccccc1C(=O)N1CCCC1)S(C)(=O)=O ?
Reply | -5.37

Ask | What does the record list as inhibition for N#CC(C#N)=CN=c1ccn(Cc2ccc(Cl)cc2Cl)cc1 ?
Reply | 57.1

Ask | What does the record list as inhibition for COc1ccc(CNC(=O)CN(c2ccc(OC)c(Cl)c2)S(=O)(=O)c2ccc(C)cc2)cc1 ?
Reply | -11.6

Ask | What does the record list as inhibition for CN(C(=O)c1cccc([N+](=O)[O-])c1)c1ccccc1C(=O)NCc1ccccc1 ?
Reply | 0.49

----------
# Protocol: Gli-Sufu pathway antagonists, primary screen, luciferase luminescence, Sufu-KO-LIGHT cells, uHTS (AID 588413);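 further: 0% = DMSO-treated cells and 100% = wells with medium but no cells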
# Stated Conditions: Sufu-KO-LIGHT fibroblasts, Gli luciferase reporter luminescence; at 5 µM; stronger effect = higher value
The whole screen tested about 340,000 compounds, of which about 2,500 (0.74%) were called active. The entries come from a sample that favours actives as a whole.
Metric Name: inhibition (%)
Numbers only; they are read as %.

Ask | What does the record list as inhibition for Cc1ccc2nc(-c3ccc(Br)cc3)cn2c1 ?
Reply | 20.9

Ask | What does the record list as inhibition for CSc1ncccc1C(=O)Nc1ccc(C)cn1 ?
Reply | -28.8

Ask | What does the record list as inhibition for CCOc1cccc(/C=N/NC(=S)NCCN2CCOCC2)c1O ?
Reply | 81.1

Ask | What does the record list as inhibition for CSc1ncccc1C(=O)Nc1ccc2c(c1)OCO2 ?
Reply | -2.99

Ask | What does the record list as inhibition for CC(=O)c1cccc(CN2CCC(CO)(Cc3ccccc3)CC2)c1 ?
Reply | 30.4

Ask | What does the record list as inhibition for O=C(CN1C(=O)c2ccccc2S1(=O)=O)N1CCc2ccccc21 ?
Reply | 64.8

Ask | What does the record list as inhibition for CCCCCN(C(=O)NC(=O)Nc1cccc(C)c1C)S(C)(=O)=O ?
Reply | -3.52

Ask | What does the record list as inhibition for OCC1(Cc2ccccc2)CCN(Cc2cc3ccccc3o2)CC1 ?
Reply | 22.4

Ask | What does the record list as inhibition for COc1ccc(C(=O)Nc2cccc(/C=C(/CCC(=O)O)c3nc4ccccc4s3)c2)cc1 ?
Reply | -20.1

Ask | What does the record list as inhibition for COc1ccccc1/C=C/CN1CCC(CO)(Cc2ccccc2)CC1 ?
Reply | 65.4

Ask | What does the record list as inhibition for CCOc1ccc(NC(=S)N2CCCCCC2)cc1 ?
Reply | -2.25

Ask | What does the record list as inhibition for COc1ccc(-c2cn3ccc(C)cc3n2)cc1 ?
Reply | -72

Just for reference, PubChem BioAssay AID588413 is where these values come from.
